- Experimental Target: hERG K+ channel (Homo sapiens)
- Construct: expressed in transfected cells; host or cells: CHO (Chinese hamster ovary)
- Procedure Text: hERG channel inhibition assay (patch-clamp, CHO-hERG cells)
- Assay type: cell-based
- Particulars: safety ratio
Metric: hERG IC20/TLR8 IC50
Answer using only a numeral; do not append any unit.

Cc1cc(N2CC[C@H](c3ccc(N4CCNCC4)cn3)[C@@H](C)C2)c2cnn(C)c2n1 = 488.9
Cc1cc(N2CCNCC2)ncc1C1CCN(c2ccnc3c2cnn3C)CC1 = 118.9
Cc1cc(N2CC[C@H](c3ccc(N4CCOC[C@@H](N)C4)cn3)[C@@H](C)C2)c2cnn(C)c2n1 = 842.9

The measured hERG IC20/TLR8 IC50 associated with Cc1cc(N2CC[C@@H](c3ncc(N4CC(C)(N)C4)cc3C)[C@H](C)C2)c2cnn(C)c2n1 reads 293.3

The measured hERG IC20/TLR8 IC50 associated with Cc1cc(N2CC[C@@H](c3ncc(N4CCNC5(CC5)C4)cc3C)[C@H](C)C2)c2cnn(C)c2n1 reads 350.0

* * *

Measured IC50 by item
- Experimental Target: UniProt Q9NR96
- Sequence (Q9NR96 26-1032): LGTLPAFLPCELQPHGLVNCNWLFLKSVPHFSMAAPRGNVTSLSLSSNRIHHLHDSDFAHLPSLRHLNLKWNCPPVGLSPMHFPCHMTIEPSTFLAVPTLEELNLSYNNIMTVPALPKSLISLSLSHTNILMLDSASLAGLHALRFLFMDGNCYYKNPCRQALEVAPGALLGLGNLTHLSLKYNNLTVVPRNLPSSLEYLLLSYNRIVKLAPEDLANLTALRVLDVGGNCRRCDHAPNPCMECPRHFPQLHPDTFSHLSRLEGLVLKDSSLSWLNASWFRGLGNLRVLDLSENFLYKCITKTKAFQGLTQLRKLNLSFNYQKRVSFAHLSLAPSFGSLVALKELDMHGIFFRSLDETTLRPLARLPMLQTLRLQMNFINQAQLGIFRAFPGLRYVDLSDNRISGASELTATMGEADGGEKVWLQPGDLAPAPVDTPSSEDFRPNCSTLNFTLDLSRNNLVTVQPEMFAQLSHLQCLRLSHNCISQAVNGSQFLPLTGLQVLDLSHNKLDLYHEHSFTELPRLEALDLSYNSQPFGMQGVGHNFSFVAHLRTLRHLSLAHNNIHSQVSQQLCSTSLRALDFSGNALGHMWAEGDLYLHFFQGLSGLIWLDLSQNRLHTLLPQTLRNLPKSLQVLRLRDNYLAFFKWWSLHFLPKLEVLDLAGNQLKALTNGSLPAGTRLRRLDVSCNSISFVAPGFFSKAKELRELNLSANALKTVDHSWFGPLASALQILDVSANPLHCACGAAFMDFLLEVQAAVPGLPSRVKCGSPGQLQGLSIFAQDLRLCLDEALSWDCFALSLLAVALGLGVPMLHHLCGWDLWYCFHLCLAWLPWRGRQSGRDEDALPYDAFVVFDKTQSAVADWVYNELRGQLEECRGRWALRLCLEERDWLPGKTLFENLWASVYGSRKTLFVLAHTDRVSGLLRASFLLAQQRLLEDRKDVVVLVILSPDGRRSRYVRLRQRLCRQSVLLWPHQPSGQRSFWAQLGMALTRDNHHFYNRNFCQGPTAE
- Procedure Text: HEK293-Blue-hTLR-9 cells assay
- Format: cell-based
- Parameters: host or cells: HEK293 (HEK-Blue hTLR9)
- Particulars: HEK293-Blue-hTLR9 cells, ODN2006 stimulation, 20 hrs; read-out: HEK/hTLR9 IC50
Could you give me the number in nM? Just the number is fine.

The measured IC50 associated with Cc1cc(N2CCC(c3ncc(N4CCNCC4)nc3C)[C@H](C)C2)c2cnn(C)c2n1 (single isomer, unassigned) [Example 23] reads 368

The measured IC50 associated with COC[C@H]1CN(c2ccc([C@H]3CCN(c4cc(C)nc5c4cnn5C)C[C@@H]3C)nc2)CCN1 reads 332

The measured IC50 associated with Cc1cc(N2CCC(c3ncc(N4CCNCC4)cn3)CC2)c2cnn(C)c2n1 reads 379

The measured IC50 associated with Cc1cc(N2CCC(c3cnc(N4CCNCC4)cc3C)[C@H](C)C2)c2cnn(C)c2n1 (single isomer, unassigned) [Example 21] reads 372

* * *

Measured hERG IC20/TLR9 IC50 by item
- Experimental Target: hERG K+ channel (Homo sapiens, UniProt Q12809)
- Construct: expressed in transfected cells; host or cells: CHO (Chinese hamster ovary)
- Sequence (Q12809 whole entry): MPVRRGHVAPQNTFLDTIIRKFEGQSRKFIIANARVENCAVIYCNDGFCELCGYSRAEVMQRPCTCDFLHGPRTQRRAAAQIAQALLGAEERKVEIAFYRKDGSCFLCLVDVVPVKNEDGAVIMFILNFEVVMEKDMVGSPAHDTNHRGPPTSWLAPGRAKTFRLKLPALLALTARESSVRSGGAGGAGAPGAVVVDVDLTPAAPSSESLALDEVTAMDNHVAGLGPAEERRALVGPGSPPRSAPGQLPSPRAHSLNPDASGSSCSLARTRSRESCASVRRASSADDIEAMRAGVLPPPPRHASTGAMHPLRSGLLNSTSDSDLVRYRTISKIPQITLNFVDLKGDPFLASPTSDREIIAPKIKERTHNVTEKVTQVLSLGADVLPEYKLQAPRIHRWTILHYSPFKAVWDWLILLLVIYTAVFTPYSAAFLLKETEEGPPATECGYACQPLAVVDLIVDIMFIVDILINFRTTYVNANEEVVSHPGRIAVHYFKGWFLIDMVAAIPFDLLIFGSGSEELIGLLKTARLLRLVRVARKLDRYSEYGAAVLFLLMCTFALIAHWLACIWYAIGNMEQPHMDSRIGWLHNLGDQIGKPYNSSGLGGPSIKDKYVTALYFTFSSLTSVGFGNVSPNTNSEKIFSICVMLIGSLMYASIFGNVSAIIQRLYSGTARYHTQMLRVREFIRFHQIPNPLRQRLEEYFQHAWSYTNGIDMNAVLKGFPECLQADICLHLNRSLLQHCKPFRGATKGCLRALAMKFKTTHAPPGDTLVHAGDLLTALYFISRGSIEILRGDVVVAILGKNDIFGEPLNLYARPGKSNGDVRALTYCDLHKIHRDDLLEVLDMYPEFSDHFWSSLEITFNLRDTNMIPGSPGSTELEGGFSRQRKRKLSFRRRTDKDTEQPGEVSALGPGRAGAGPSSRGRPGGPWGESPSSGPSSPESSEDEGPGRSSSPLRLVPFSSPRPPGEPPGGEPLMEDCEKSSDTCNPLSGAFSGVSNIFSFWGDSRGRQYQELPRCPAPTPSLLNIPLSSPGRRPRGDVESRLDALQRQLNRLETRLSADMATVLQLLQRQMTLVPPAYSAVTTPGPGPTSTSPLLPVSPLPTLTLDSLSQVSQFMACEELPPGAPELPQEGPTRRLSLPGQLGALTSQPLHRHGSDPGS
- Procedure Text: hERG channel inhibition assay (patch-clamp, CHO-hERG cells)
- Format: cell-based
- Particulars: safety ratio

Cc1cc(N2CCC(c3ccc(N4CCNCC4)cn3)CC2)c2cnn(C)c2n1 [Example 2] = >70.4
CO[C@@H]1CN(c2cnc([C@@H]3CCN(c4cc(C)nc5c4cnn5C)C[C@H]3C)c(C)c2)C[C@H]1N [Example 26] = >91.7

Read the next record carefully.
# value of hERG IC20/TLR9 IC50, hERG K+ channel (Homo sapiens, UniProt Q12809), item Cc1cc(N2CC[C@H](c3ccc(N4CCNCC4)cn3)[C@@H](C)C2)c2cnn(C)c2n1 [Example 35] = 27.8

* * *

- Procedure Text: Single dose pharmacokinetics (PK) study in male Wister-Han rats
- Format: in vivo
- Particulars: male, Wister-Han, plasma; rat, PO 10 mg/kg
Metric: Cmax
The reply should read as a number followed by its unit.

Please review the following examples before continuing.
CO[C@@H]1CN(c2cnc([C@@H]3CCN(c4cc(C)nc5c4cnn5C)C[C@H]3C)c(C)c2)C[C@H]1N = 620 ng/mL
Cc1cc(N2CCC(c3ncc(N4CCNCC4)cc3C)CC2)c2cnn(C)c2n1 = 465 ng/mL
Cc1cc(N2CC[C@H](c3ccc(N4CCOC[C@@H](N)C4)cn3)[C@@H](C)C2)c2cnn(C)c2n1 = 216 ng/mL

Read the next record carefully.
The measured Cmax associated with Cc1cc(N2CC[C@@H](c3ncc(N4CCOC[C@@H](N)C4)cc3C)[C@H](C)C2)c2cnn(C)c2n1 reads 122 ng/mL
